Could you please report measured Population Hoechst High Intensity Objects (%) for the items listed next?
System: U2OS
Experiment: Multiplex assay against U2OS
Type: toxicity, cell-based
Details: human, 12 h, 10 µM, compound concentration 10 uM, number of replicates 2
Write the number in % without appending the unit.

Given the compound `N=C(N)NCCC[C@H](NC(=O)COCC(c1ccccc1)c1ccccc1)C(=O)O.O=C(O)C(F)(F)F` , what is its reported Population Hoechst High Intensity Objects (%)? 0

Given the compound Br.Cc1cccc(C2CN(C)CCc3c2cc(O)c(O)c3Cl)c1 (stereo not given) , what is its reported Population Hoechst High Intensity Objects (%)? 0

Given the compound `Cn1ncc(NC(=O)c2nc(-c3c(F)cccc3F)sc2N)c1N1CC[C@@H](N)[C@H](F)CC1` , what is its reported Population Hoechst High Intensity Objects (%)? 0

Given the compound `CS(=O)(=O)c1ccc(NC(=O)c2cccc(COc3ccc(Br)cc3CNCCO)c2)c(Cl)c1.O=CO` , what is its reported Population Hoechst High Intensity Objects (%)? 0

Given the compound NCC1CCC(CNc2nc(NCc3ccccc3OC(F)(F)F)ncc2[N+](=O)[O-])CC1 (stereo not given) , what is its reported Population Hoechst High Intensity Objects (%)? 0

Given the compound C[C@@H]1CC[C@@]2(OC1)O[C@H]1[C@@H](O)[C@H]3[C@@H]4CC[C@H]5C[C@@H](O[C@@H]6O[C@H](CO)[C@H](O[C@@H]7O[C@H](CO)C(O)[C@H](O[C@@H]8OC[C@@H](O)[C@H](O)[C@H]8O)[C@H]7O[C@@H]7O[C@H](CO)[C@H](O)[C@H](O[C@@H]8O[C@H](CO)[C@@H](O)[C@H](O)[C@H]8O)[C@H]7O)[C@H](O)[C@H]6O)[C@H](O)C[C@]5(C)[C@H]4CC[C@]3(C)[C@H]1[C@@H]2C (stereo not given in full) , what is its reported Population Hoechst High Intensity Objects (%)? 0

Given the compound `COc1cccc(Cn2cc(C(=O)Nc3ccc(C)c(S(=O)(=O)N4CCOCC4)c3)c(-c3ccc(C)cc3)n2)c1` , what is its reported Population Hoechst High Intensity Objects (%)? 0

Given the compound `CS(=O)(=O)c1ccc(C(=O)Nc2cccc(COc3ccc(Br)cc3CN3CC[C@H](O)C3)c2)cc1.O=CO` , what is its reported Population Hoechst High Intensity Objects (%)? 0

Given the compound `CS(=O)(=O)c1ccc(C(=O)Nc2cccc(COc3ccc(Br)cc3CN3CCC[C@H](O)C3)c2)c(Cl)c1.O=CO` , what is its reported Population Hoechst High Intensity Objects (%)? 0

Given the compound `COCCN1CCN(CCn2ccc(Nc3ncc4c(n3)-c3c(nn(C)c3-c3ccccc3)C[C@H]4C)n2)CC1` , what is its reported Population Hoechst High Intensity Objects (%)? 0

Given the compound `Cc1cccc(S(=O)(=O)N(C)[C@H](C)CCN2CCC(C)CC2)c1.Cl` , what is its reported Population Hoechst High Intensity Objects (%)? 0

Given the compound `Cc1c(C(=O)Nc2ccc(N3C[C@@H](C)O[C@@H](C)C3)nc2)cccc1-c1ccc(OC(F)(F)F)cc1` , what is its reported Population Hoechst High Intensity Objects (%)? 0

Given the compound `Cn1cc(-n2cnc3c(NCc4nc5cc(Cl)c(Cl)cc5[nH]4)nc(N4CCOCC4)nc32)cn1` , what is its reported Population Hoechst High Intensity Objects (%)? 0

Given the compound `COc1cc(OC)cc(C(=O)NNC(=O)Nc2cccc3ccccc23)c1` , what is its reported Population Hoechst High Intensity Objects (%)? 0

Given the compound `C[C@@H](OC[C@@]1(c2ccccc2)CC[C@]2(CCC(=O)N2)CN1)c1cc(C(F)(F)F)cc(C(F)(F)F)c1` , what is its reported Population Hoechst High Intensity Objects (%)? 0

###

Test system: U2OS
Assay: Multiplex assay against U2OS
Type: toxicity, cell-based
Settings: human, 48 h, 10 µM, compound concentration 10 uM, number of replicates 2
Could you please report measured Population Membrane Permeable-Phenotype (%) for the items listed next?
Express your answer as a number followed by its unit.

Given the molecule `COCCN1CCN(CCn2ccc(Nc3ncc4c(n3)-c3c(nn(C)c3-c3ccccc3)C[C@H]4C)n2)CC1` , what is its reported Population Membrane Permeable-Phenotype (%)? 10%

Given the molecule `CC(C)N(CCCCOCC(=O)NS(C)(=O)=O)c1cnc(-c2ccccc2)c(-c2ccccc2)n1` , what is its reported Population Membrane Permeable-Phenotype (%)? 1%

Given the molecule `CN(C)CCN(Cc1ccc(-c2ccc(CNCCc3ccccc3)cc2)cc1)C(=O)CCC1CCCC1.Cl.Cl` , what is its reported Population Membrane Permeable-Phenotype (%)? 100%

Given the molecule `C[C@H](N)Cn1ccc2cc(F)c(Cl)cc21.O=C(O)/C=C/C(=O)O` , what is its reported Population Membrane Permeable-Phenotype (%)? 1%

###

System: Fibroblast
Test: Multiplex assay against human fibroblast
Format: toxicity, cell-based
Details: 12 h, 1 µM, compound concentration 1 uM, number of replicates 2
Measure Name: Population Normal (%)
Write the number in % without appending the unit.

Given the compound O=C(NCc1ccc(F)cc1)N1CCN2C(=O)OC(c3ccccc3)(c3ccccc3)C2C1 (configuration not stated) , what is its reported Population Normal (%)? 99

Given the compound COCCNC1CCC(Nc2cc(-c3csc(NCC4(C#N)CCOCC4)n3)c(Cl)cn2)CC1 (configuration not stated) , what is its reported Population Normal (%)? 99

Given the compound Br.Cc1cccc(C2CN(C)CCc3c2cc(O)c(O)c3Cl)c1 (configuration not stated) , what is its reported Population Normal (%)? 100

Given the compound `COCCN1CCN(CCn2ccc(Nc3ncc4c(n3)-c3c(nn(C)c3-c3ccccc3)C[C@H]4C)n2)CC1` , what is its reported Population Normal (%)? 100

Given the compound `Cc1cc(NC(=O)c2cccc(NC(=O)/C=C/CN(C)C)c2)ccc1Nc1nccc(-c2cccnc2)n1` , what is its reported Population Normal (%)? 100

Given the compound `CC1=C(C)C(=O)C(C(C)(C)CC(=O)N(CCCCSC[C@H]2O[C@@H](n3cnc4c(N)ncnc43)[C@H](O)[C@@H]2O)Cc2cccc(-c3ccc(Cl)cc3)c2)=C(C)C1=O` , what is its reported Population Normal (%)? 100

Given the compound CCNc1ccc(-c2nn(-c3ccccc3C)c3c2C(C)Cc2nc(NC(=O)OC)sc2-3)cn1.O=C(O)C(F)(F)F (configuration not stated) , what is its reported Population Normal (%)? 100

Given the compound `CC1(C)C(=O)N([C@H]2CCc3c(O)cccc32)c2nc(Nc3cccc(CN4CCCC4)c3)ncc21` , what is its reported Population Normal (%)? 100

Given the compound `CCCNc1ccc2ncc(-c3ccncc3)n2n1` , what is its reported Population Normal (%)? 100

Given the compound `CS(=O)(=O)c1ccc(C(=O)Nc2cccc(COc3ccc(Br)cc3CN3CC[C@@H](O)C3)c2)c(Cl)c1.O=CO` , what is its reported Population Normal (%)? 100

Given the compound CCc1cnn2c(NCc3ccc[n+]([O-])c3)cc(N3CCCCC3CCO)nc12 (configuration not stated) , what is its reported Population Normal (%)? 100

Given the compound `CN1CCN(c2ccc(-n3cc(-c4ccncc4OCC4CCNCC4)cn3)cc2)CC1` , what is its reported Population Normal (%)? 100

Given the compound `N=C(N)NCCC[C@H](NC(=O)COCC(c1ccccc1)c1ccccc1)C(=O)O.O=C(O)C(F)(F)F` , what is its reported Population Normal (%)? 100

Given the compound `COc1ncc(-c2cc(-c3ncc(CN4C[C@@H](C)O[C@@H](C)C4)o3)c3cn[nH]c3c2)cc1NS(C)(=O)=O` , what is its reported Population Normal (%)? 100

Given the compound `COc1cc(OC)cc(C(=O)NNC(=O)Nc2cccc3ccccc23)c1` , what is its reported Population Normal (%)? 100

Given the compound `CCn1c(-c2nonc2N)nc2cncc(C(=O)N3CC[C@H](N)C3)c21.Cl` , what is its reported Population Normal (%)? 100

Given the compound `OC(c1ccc(-c2ccc(CN3CCN(Cc4ccncc4)CC3)cc2)c(F)c1)(C(F)(F)F)C(F)(F)F` , what is its reported Population Normal (%)? 100

###

System: U2OS
Assay: Multiplex assay against U2OS
Assay type: toxicity, cell-based
Settings: human, 48 h, 1 µM, compound concentration 1 uM, number of replicates 2
Could you please report measured Population Normal (%) for the items listed next?
Write the number in % without appending the unit.

Given the molecule `N=C(N)NCCC[C@H](NC(=O)COCC(c1ccccc1)c1ccccc1)C(=O)O.O=C(O)C(F)(F)F` , what is its reported Population Normal (%)? 100

Given the molecule `CC1=C(C)C(=O)C(C(C)(C)CC(=O)N(CCCCSC[C@H]2O[C@@H](n3cnc4c(N)ncnc43)[C@H](O)[C@@H]2O)Cc2cccc(-c3ccc(Cl)cc3)c2)=C(C)C1=O` , what is its reported Population Normal (%)? 100

Given the molecule `Cn1ncc(NC(=O)c2nc(-c3c(F)cccc3F)sc2N)c1N1CC[C@@H](N)[C@H](F)CC1` , what is its reported Population Normal (%)? 100
